# Tested on: Diabrotica balteata
# testDescription: Diabrotica balteata (Corn Rootworm): 24-well microtiter plate with artificial diet, L2 larvae, larval mortality
# Format: in vivo
# condition: application rate 12.5 ppm; comparative example
metricName: Control/% (%)
Report the value in % with no unit label.

# annotated cases, reported Control/% shown
{"columns": ["compound", "value"],
 "data": [
  ["O=C(NCC(F)(F)F)N1CCc2cc(C3=NOC(c4cc(Cl)cc(Cl)c4)(C(F)(F)F)C3)ccc21 (stereo not shown) [reference compound]", 65],
  ["N#Cc1cc(C2=NOC(c3cc(Cl)cc(Cl)c3)(C(F)(F)F)C2)ccc1-n1cncn1 (stereo not shown) [drawing 76]", 100],
  ["O=C(CC(F)(F)F)NC1CCc2cc(C3=NOC(c4cc(Cl)cc(Cl)c4)(C(F)(F)F)C3)ccc21 (stereo not shown) [drawing 74]", 100]
]}

Next compound, Control/% to be filled in.
Briefly, Control/% measured for FC(F)(F)C1(c2cc(Cl)cc(Cl)c2)CC(c2ccc(-n3cncn3)cc2)=NO1 (stereo not shown) [reference compound] : 85

Values were extracted from patent US20150208658A1.
